Tested on: RPMI-8226
Assay explanation: NCI tumour cell line growth inhibition, 48 h
Activity calls are given as the source filed them. No stated cut-off is given here; in the data, active = GI50 up to about 1.1 µM and inactive = higher.
Valid outcomes are listed here; reply with one: true (active), false (inactive)

Some solved cases for reference:
[[record]]
molecule = "CC(=O)OC1CC2c3cccc4c3C(CC2N(C)C1=O)CN4C(=O)c1ccccc1 (stereo not drawn)"
test_system = "RPMI-8226"
group = "false"

[[record]]
molecule = "C=CCN1C(=O)/C(=C/c2ccc(C)cc2)NC1=S"
test_system = "RPMI-8226"
group = "false"

[[record]]
molecule = "C=C(CN(C)C)C1(c2ccccc2)CC2(CCCC2)C(=O)O1 (stereo not drawn)"
test_system = "RPMI-8226"
group = "false"


State the result this test recorded for `Cc1c2cccc-2c(OCCO)cc2c1[nH]c1ccccc12` .
false

For `C=C1C(=O)O[C@@H]2C[C@@H]3[C@]4(CC[C@]5(C)[C@@H]([C@H](C)CC/C=C(\C)C=O)CC[C@@]35C)C[C@]4(CCC(=O)OC)[C@H]12` , which call appears in the assay record?
true

Outcome? `NNC(=O)c1ccccc1Nc1ccccc1C(=O)NN`
false

----------
System: HOP-62
Assay explanation: NCI tumour cell line growth inhibition, 48 h
Activity calls are given as the source filed them. No stated cut-off is given here; in the data, active = GI50 up to about 1.1 µM and inactive = higher.
// one of class 1 = active, class 0 = inactive, no free text

Illustrative cases are given below, each with its answer.
[[record]]
compound = "CNS(=O)(=O)NNS(=O)(=O)c1ccc(Cl)cc1"
group = "class 0"

[[record]]
compound = "CC(C)NCC(O)c1ccc(O)c2ncccc12 (centres undefined)"
group = "class 0"

[[record]]
compound = "CC1(C)OC2C(O)C(CO)OC2(C(F)F)O1 (centres undefined)"
group = "class 0"

[[record]]
compound = "CCC1(OC(=O)CNC)C(=O)OCc2c1cc1n(c2=O)Cc2cc3ccccc3nc2-1 (centres undefined)"
group = "class 1"

[[record]]
compound = "Cc1cc(NS(=O)(=O)c2ccc(NC(=O)c3ccc(Cl)c4c(Nc5ccc(S(=O)(=O)Nc6cc(C)on6)cc5)c5ccccc5nc34)cc2)no1"
group = "class 0"

[[record]]
compound = "C=C(CN(C)C)C1(c2ccccc2)CC2(CCCC2)C(=O)O1 (centres undefined)"
group = "class 0"


Call for entry Cc1ccc(C2NC(=O)c3ccccc3N2)s1 (centres undefined) :
class 0

Recorded test call requested for CCC(C)C(NC(=O)C(CCCCN)NC(=O)C(NC(=O)C(CCC(N)=O)NC(=O)C(CCCNC(=N)N)NC(C)=O)C(C)CC)C(=O)NC(Cc1c[nH]c2ccccc12)C(=O)NC(Cc1ccccc1)C(=O)NC(CCC(N)=O)C(=O)NC(CC(N)=O)C(=O)NC(CCCNC(=N)N)C(=O)NC(CCCNC(=N)N)C(=O)NC(CCSC)C(=O)NC(CCCCN)C(=O)NC(Cc1c[nH]c2ccccc12)C(=O)NC(CCCCN)C(=O)NC(CCCCN)C(N)=O (centres undefined)
class 0

Check the results log: what was the call for `COc1ccc(CNc2nc3ccccc3nc2-c2cccs2)cc1` ?
class 0

----------
System: LXFL 529
Assay explanation: NCI tumour cell line growth inhibition, 48 h
Activity calls are given as the source filed them. No stated cut-off is given here; in the data, active = GI50 up to about 1.1 µM and inactive = higher.
Write down one outcome, taken from 1 (active), -1 (inactive)

Example entries begin here.
[[record]]
compound = "CCCCC1CC(c2cccc([N+](=O)[O-])c2)=NO1 (stereo unspecified)"
group = -1

[[record]]
compound = "COc1ccc(C2=Nc3ccccc3NC(=O)C2)cc1"
group = -1

[[record]]
compound = "CC(C)N(C(=O)C12C3C4C1C1C2C3C41C#N)C(C)C (stereo unspecified)"
group = -1

[[record]]
compound = "CCOc1ccc(/N=N/c2ccc3oc(=O)c(C(=O)Nc4ccc(OC)cc4)cc3c2)cc1"
group = -1

[[record]]
compound = "CCC1(OC(=O)CNC)C(=O)OCc2c1cc1n(c2=O)Cc2cc3ccccc3nc2-1 (stereo unspecified)"
group = 1


Now let's try a different one.
Identify the outcome logged in this assay for the compound shown: `CN(C)c1c([O-])c(=[N+](C)C)c1=O`
-1

----------
Test system: UO-31
Assay explanation: NCI tumour cell line growth inhibition, 48 h
Active and inactive are the calls of the source. No stated cut-off is given here; in the data, active = GI50 up to about 1.1 µM and inactive = higher.
Field 'call' accepts active, inactive

Use these answered entries as a reference point.
[[record]]
compound = "S=C(S)NCCN1CCNCC1"
group = "inactive"

[[record]]
compound = "O=CC1C(Cl)=Nc2nc3ccccc3n2C1c1ccc([N+](=O)[O-])cc1 (stereo unspecified)"
group = "inactive"

[[record]]
compound = "CC(=O)c1c(O)c(C)c(O)c(Cc2c(O)c3c(c(C(=O)/C=C/c4ccccc4)c2O)OC(C)(C)C=C3)c1O [ROTTLERIN]"
group = "inactive"

[[record]]
compound = "CCCCCCCC/C=C\\CCCCCCC/C=C1/C[C@](/C=C/C(=O)OC)(CO)OC1=O"
group = "inactive"


Hi team, can someone confirm the assay call for `Nc1ncc(Cc2nc3ccccc3s2)s1` ?
inactive

In this assay, the call recorded for `CCOC(=O)Cc1csc(Nc2ccc(OCC)cc2)n1` was what?
inactive

----------
System: HCT-116
Assay explanation: NCI tumour cell line growth inhibition, 48 h
Activity calls are given as the source filed them. No stated cut-off is given here; in the data, active = GI50 up to about 1.1 µM and inactive = higher.
Observation type: GI50

[[record]]
compound = "Cn1c(-c2cccc(N)c2)[n+](C)c2ccccc21"
test_system = "HCT-116"
observation_type = "GI50"
result = "> 100 µM (inactive)"

[[record]]
compound = "C[N+]1(C)C/C(=C\\c2ccncc2)C(=O)/C(=C/c2ccncc2)C1"
test_system = "HCT-116"
observation_type = "GI50"
result = "38.5 µM (inactive)"

[[record]]
compound = "COc1cc(/C=C/c2ccc(C)cc2)cc(OC)c1OC"
test_system = "HCT-116"
observation_type = "GI50"
result = "3.3 µM (inactive)"

[[record]]
compound = "CCCCCC/C=C\\CCCCCCCCCC1=CC(=O)C=C(OC)C1=O"
test_system = "HCT-116"
observation_type = "GI50"
result = "3.43 µM (inactive)"


Reported GI50 for `CCOC(=O)Nn1c(C)cc(C(=O)OC)c1C` was > 100 µM (inactive)

The compound identified as `Brc1cccc[n+]1-c1ccc2cc(-[n+]3ccccc3Br)ccc2c1` registered its GI50 at 39.6 µM (inactive)

// field: GI50; key: `CCCC1=NC(C(F)(F)F)(C(F)(F)F)N=C(N2CCOCC2)O1` ; value = > 100 µM (inactive)

CCc1cccc(C)c1NC(=O)CC1Sc2ccccc2NC1=O (stereo not drawn) has a reported GI50 of 34.3 µM (inactive)

So for `CN(C)c1nc(N)nc(CS)n1` , the logged GI50 turned out to be > 100 µM (inactive)

Briefly, GI50 measured for `Cc1c(S(=O)(=O)N/C(N)=N/c2ccc(Cl)cc2)sc2ccc(Cl)cc12` : 15.9 µM (inactive)

// sample `C[C@H](CCC1=NCCN1)[C@H]1CC[C@H]2[C@@H]3CC[C@@H]4C[C@H](O)CC[C@]4(C)[C@H]3CC[C@]12C` , its GI50 was 4.72 µM (inactive)

Consider `CCOC(=O)c1ncn(CCc2ccc(Cl)cc2)c1C` . Its measured GI50 is > 100 µM (inactive)

For reference, reported GI50 for `O=C1C=C(Cl)C(=O)C(c2ccc(Cl)cc2)=C1` stands at 19.3 µM (inactive)

The recorded GI50 for O=C(C#Cc1cn(C2CC(O)C(CO)O2)c(=O)[nH]c1=O)c1ccccc1 (stereo not drawn) is 42.5 µM (inactive)

----------
Listing of entries alongside the reported GI50.
Tested on: ACHN
Assay explanation: NCI tumour cell line growth inhibition, 48 h
Calls of active or inactive are those of the source. Cut-off read from the data, not from the text of the source: active = GI50 up to about 1.1 µM and inactive = higher.

Check out these entries, answers already filled in.
[[record]]
compound = "O=CC1C(Cl)=Nc2nc3ccccc3n2C1c1ccc([N+](=O)[O-])cc1 (stereo not given)"
test_system = "ACHN"
result = "2.43 µM (inactive)"

[[record]]
compound = "CCCCCCCCCCCC(=O)OCCOCCOCCOCCOCCOC(=O)CCCCCCCCCCC"
test_system = "ACHN"
result = "> 100 µM (inactive)"

[[record]]
compound = "CC1=C(C(=O)Nc2cccc(Cl)c2)C(c2ccc([N+](=O)[O-])cc2)C(C(=O)Nc2cccc(Cl)c2)=C(C)N1"
test_system = "ACHN"
result = "25.1 µM (inactive)"

[[record]]
compound = "CCC1CCc2c(OC)ccc(OCC(=O)O)c2C1=O (stereo not given)"
test_system = "ACHN"
result = "> 100 µM (inactive)"


Input `COC(=O)c1onc(-c2c(OC)cc(OC)cc2OC)c1C(=O)OC` . Output GI50: > 100 µM (inactive)

----------
Tested on: U-251
Assay explanation: NCI tumour cell line growth inhibition, 48 h
Activity calls are given as the source filed them. Rule as the data show it: active = GI50 up to about 1.1 µM and inactive = higher.
The entries below come with measured GI50 values attached.

[[record]]
compound = "CC(=O)Nc1ccc(/C=c2\\sc3nnc(-c4cccnc4)n3c2=O)cc1"
test_system = "U-251"
result = "17.8 µM (inactive)"

[[record]]
compound = "Nc1nc(Cl)cc(NCC2(CO)COC2)n1"
test_system = "U-251"
result = "> 100 µM (inactive)"


Value of measured GI50 for the entry `Cc1cc(C)nc(NC(=S)Nc2ccccc2Cl)c1` : > 100 µM (inactive)

Memo: O=CC1C(Cl)=Nc2nc3ccccc3n2C1c1ccc([N+](=O)[O-])cc1 (configuration not stated) , reported GI50: 5.52 µM (inactive)

Recorded GI50 (compound CCC1CCc2c(OC)ccc(OCC(=O)O)c2C1=O (configuration not stated) ): > 100 µM (inactive)

Sample `c1ccc2c3c(ccc2c1)CSCc1ccc2ccccc2c1-3` ; GI50 observed: > 100 µM (inactive)
